# Tgt: GABA-A receptor; alpha-1/beta-3/gamma-2 (Homo sapiens, UniProt P14867+P18507+P28472)
# Sequence (P14867 whole entry, one chain of several): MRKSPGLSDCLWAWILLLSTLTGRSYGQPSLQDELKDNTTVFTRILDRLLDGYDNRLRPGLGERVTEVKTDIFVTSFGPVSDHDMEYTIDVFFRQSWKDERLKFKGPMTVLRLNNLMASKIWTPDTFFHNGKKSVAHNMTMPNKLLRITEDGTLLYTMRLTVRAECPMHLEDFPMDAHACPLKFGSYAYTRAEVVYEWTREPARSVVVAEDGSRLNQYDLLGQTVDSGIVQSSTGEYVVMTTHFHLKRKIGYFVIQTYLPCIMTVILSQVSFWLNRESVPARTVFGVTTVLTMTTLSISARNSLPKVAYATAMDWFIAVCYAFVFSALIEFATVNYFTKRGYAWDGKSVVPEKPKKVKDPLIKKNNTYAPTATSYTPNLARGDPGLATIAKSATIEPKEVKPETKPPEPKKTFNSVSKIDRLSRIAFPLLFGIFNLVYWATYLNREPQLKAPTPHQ
# Protocol Notes: Displacement of [3H]-Ro- 15-1788 from human gamma-aminobutyric-acid GABA-A receptor alpha-1-beta-3-gamma-2 expressed in L(tk-) cells
Observed Property: Ki (nM)
Write the value in nM as a bare number.

Req: Look up and report measured Ki for this entry: "Cc1cc(-c2nncc3c(C(C)(C)C)c(OCc4ncnn4C)nn23)no1"
Resp: 0.83

====

# Tgt: GABA-A receptor; alpha-2/beta-3/gamma-2 (Homo sapiens, UniProt P18507+P28472+P47869)
# Sequence (P18507 whole entry): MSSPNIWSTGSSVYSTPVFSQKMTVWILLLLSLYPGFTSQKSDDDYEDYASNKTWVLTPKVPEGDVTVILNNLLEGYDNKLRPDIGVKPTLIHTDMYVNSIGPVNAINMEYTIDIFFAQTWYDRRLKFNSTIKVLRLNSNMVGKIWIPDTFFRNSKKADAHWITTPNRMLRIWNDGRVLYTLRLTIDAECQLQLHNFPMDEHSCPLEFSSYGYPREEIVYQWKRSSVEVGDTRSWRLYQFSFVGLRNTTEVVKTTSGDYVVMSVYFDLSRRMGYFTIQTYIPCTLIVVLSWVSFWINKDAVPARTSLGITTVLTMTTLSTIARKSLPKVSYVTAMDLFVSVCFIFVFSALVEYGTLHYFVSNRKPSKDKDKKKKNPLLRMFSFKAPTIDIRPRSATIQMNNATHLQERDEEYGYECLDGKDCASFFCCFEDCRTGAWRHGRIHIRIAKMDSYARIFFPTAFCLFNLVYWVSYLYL
# Sequence (P28472 whole entry): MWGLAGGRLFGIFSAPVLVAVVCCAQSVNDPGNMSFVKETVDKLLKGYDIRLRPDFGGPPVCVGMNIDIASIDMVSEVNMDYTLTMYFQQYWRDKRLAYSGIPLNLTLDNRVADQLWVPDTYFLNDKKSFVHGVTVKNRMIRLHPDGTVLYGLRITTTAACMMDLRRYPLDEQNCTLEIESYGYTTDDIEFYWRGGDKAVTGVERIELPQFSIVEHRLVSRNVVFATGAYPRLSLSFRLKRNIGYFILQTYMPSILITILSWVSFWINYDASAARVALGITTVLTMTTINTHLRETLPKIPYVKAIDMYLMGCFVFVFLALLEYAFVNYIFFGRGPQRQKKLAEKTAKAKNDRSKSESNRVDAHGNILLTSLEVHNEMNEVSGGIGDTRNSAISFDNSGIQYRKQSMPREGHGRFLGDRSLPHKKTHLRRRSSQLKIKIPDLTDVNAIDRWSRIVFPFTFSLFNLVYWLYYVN
# Sequence (P47869 whole entry): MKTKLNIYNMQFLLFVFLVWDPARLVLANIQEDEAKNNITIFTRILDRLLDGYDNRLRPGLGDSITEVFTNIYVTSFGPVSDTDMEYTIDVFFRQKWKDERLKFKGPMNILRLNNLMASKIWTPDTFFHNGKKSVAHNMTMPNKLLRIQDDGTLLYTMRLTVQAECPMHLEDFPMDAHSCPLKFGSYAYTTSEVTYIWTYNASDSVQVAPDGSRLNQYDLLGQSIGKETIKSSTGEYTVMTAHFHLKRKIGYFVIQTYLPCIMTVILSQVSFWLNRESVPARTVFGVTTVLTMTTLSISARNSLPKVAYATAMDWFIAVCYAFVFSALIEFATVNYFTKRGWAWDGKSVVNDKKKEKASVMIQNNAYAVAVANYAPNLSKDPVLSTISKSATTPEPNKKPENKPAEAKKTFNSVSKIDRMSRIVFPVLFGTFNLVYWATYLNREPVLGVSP
# Protocol Notes: Displacement of [3H]-Ro- 15-1788 from human gamma-aminobutyric-acid GABA-A receptor alpha-2-beta-3-gamma-2 expressed in L(tk-) cells
Observed Property: Ki (nM)
Numbers only here, please. The scale is nM.

Req: For the compound "Cc1cc(-c2nncc3c(C(C)(C)C)c(OCc4ncnn4C)nn23)no1" , report Ki.
Resp: 0.85
